Measured cytotoxicity at 10 µM values are reported for all entries that follow.
PROTOCOL_DESCRIPTION: Toxicity liver stage against HepG2, at 10uM
Type: cell-based
Set-up: test concentration 10 uM, cell line HepG2-A16-CD81EGFP
RUN_CONDITIONS: human, HepG2-A16-CD81EGFP cells; read-out: INHIBITION

Some entries whose results are on file:
CN(C)CCNc1c(-c2ccccc2)c(=O)c1=O; -9.11%
COC(=O)CN1Cc2cc3c(cc2NCCC1=O)OCO3; -8.1%
Cc1cnn(CCC(=O)N2CCCN(c3cccnn3)CC2)c1; 1.47%
CCN(C(=O)Nc1cc(C)on1)C(C)c1cccc(O)c1 (configuration not stated); 2.52%

Asked: Need cytotoxicity at 10 µM, item CNc1cc(C2CCCNC2)nc(C)n1 (configuration not stated)
Given back: 8.37%

Asked: Need cytotoxicity at 10 µM, item O=C(COc1cccc(F)c1)N1C[C@@H](CN2CCCC2)C[C@H](CO)C1
Given back: 3.94%
